System under test: HLA-B*83:01
Protocol: IEDB peptide-MHC binding, purified MHC/competitive/fluorescence; filed as Kd, often an IC50 or EC50 that approximates it; bounds were set here for any values at or beyond the usual limits of such assays
Test context: source organism: Salmonella enterica subsp. enterica serovar Typhi

>  <Sequence record>
FVVDTTPPL

>  <System under test>
HLA-B*83:01

>  <Kd>
≥ 5 µM

$$$$

---

System under test: HLA-A*02:02
Protocol: IEDB peptide-MHC binding, purified MHC/competitive/radioactivity; filed as Kd, often an IC50 or EC50 that approximates it; bounds were set here for any values at or beyond the usual limits of such assays
Test context: source organism: Trypanosoma cruzi
pKd: −log10 of the molar value.
pKd: recorded values

>  <Sequence record>
GITRPTTVV

>  <System under test>
HLA-A*02:02

>  <pKd>
4.85

$$$$
>  <Sequence record>
GVLPLLLLYS

>  <System under test>
HLA-A*02:02

>  <pKd>
5.89

$$$$
>  <Sequence record>
FLSHDFTLV

>  <System under test>
HLA-A*02:02

>  <pKd>
10.21

$$$$

---

Kd: recorded values
System under test: HLA-B*57:01
Protocol: IEDB peptide-MHC binding, purified MHC/direct/fluorescence; filed as Kd, often an IC50 or EC50 that approximates it; bounds were set here for any values at or beyond the usual limits of such assays
Test context: source organism: Camelpox virus CMS

>  <Sequence record>
RVFDKADGK

>  <Kd>
≥ 20000 nM

$$$$
>  <Sequence record>
ISIPRSVGF

>  <Kd>
85.9 nM

$$$$

---

System under test: HLA-B*07:02
Protocol: IEDB peptide-MHC binding, purified MHC/direct/fluorescence; filed as Kd, often an IC50 or EC50 that approximates it; bounds were set here for any values at or beyond the usual limits of such assays
Test context: source organism: Marburg virus - Musoke, Kenya, 1980
pKd: −log10 of the molar value.
Test readout: pKd

>  <Sequence record>
AEALLADGL

>  <Result>
≤ 4.70

$$$$

---

System under test: HLA-B*07:02
Protocol: IEDB peptide-MHC binding, purified MHC/direct/fluorescence; filed as Kd, often an IC50 or EC50 that approximates it; bounds were set here for any values at or beyond the usual limits of such assays
Test context: source organism: Mammarenavirus juninense

>  <Sequence record>
LPTTITVPV

>  <Kd (nM)>
824

$$$$

---

Kd: recorded values
System under test: HLA-A*03:01
Protocol: IEDB peptide-MHC binding, purified MHC/competitive/radioactivity; filed as Kd, often an IC50 or EC50 that approximates it; bounds were set here for any values at or beyond the usual limits of such assays
Test context: source organism: SARS coronavirus Tor2
Test readout: Kd (nM)

>  <Sequence record>
IVNAANIHLK

>  <Test readout>
Kd

>  <Modifier>
=

>  <Numeric readout>
51.1

$$$$
>  <Sequence record>
NVYADSFVVK

>  <Test readout>
Kd

>  <Modifier>
=

>  <Numeric readout>
76.5

$$$$
>  <Sequence record>
TQNVLYENQK

>  <Test readout>
Kd

>  <Modifier>
≥

>  <Numeric readout>
29200

$$$$
>  <Sequence record>
TVYVYSRVK

>  <Test readout>
Kd

>  <Modifier>
=

>  <Numeric readout>
67.5

$$$$
>  <Sequence record>
SMMGFKMNY

>  <Test readout>
Kd

>  <Modifier>
=

>  <Numeric readout>
4.89

$$$$
>  <Sequence record>
KTNCCRFQEK

>  <Test readout>
Kd

>  <Modifier>
=

>  <Numeric readout>
38.3

$$$$
>  <Sequence record>
KVKYLYFIK

>  <Test readout>
Kd

>  <Modifier>
=

>  <Numeric readout>
113

$$$$
>  <Sequence record>
RLYECLYRNR

>  <Test readout>
Kd

>  <Modifier>
=

>  <Numeric readout>
6.91

$$$$
>  <Sequence record>
AIVCRFDTR

>  <Test readout>
Kd

>  <Modifier>
=

>  <Numeric readout>
4170

$$$$
>  <Sequence record>
TMHANYIFWR

>  <Test readout>
Kd

>  <Modifier>
=

>  <Numeric readout>
1260

$$$$
>  <Sequence record>
VLAYMLFTK

>  <Test readout>
Kd

>  <Modifier>
=

>  <Numeric readout>
0.179

$$$$
>  <Sequence record>
ASLPYGANK

>  <Test readout>
Kd

>  <Modifier>
=

>  <Numeric readout>
177

$$$$
>  <Sequence record>
ALAYYNNSK

>  <Test readout>
Kd

>  <Modifier>
=

>  <Numeric readout>
44.5

$$$$
>  <Sequence record>
IVFVCVEYY

>  <Test readout>
Kd

>  <Modifier>
=

>  <Numeric readout>
49.7

$$$$
>  <Sequence record>
QQQGQTVTK

>  <Test readout>
Kd

>  <Modifier>
=

>  <Numeric readout>
16600

$$$$
>  <Sequence record>
ALSTNHGHK

>  <Test readout>
Kd

>  <Modifier>
=

>  <Numeric readout>
30

$$$$
>  <Sequence record>
GMSYYCKSHK

>  <Test readout>
Kd

>  <Modifier>
=

>  <Numeric readout>
20

$$$$
>  <Sequence record>
MLLQFAYSNR

>  <Test readout>
Kd

>  <Modifier>
=

>  <Numeric readout>
164

$$$$
>  <Sequence record>
WIMLLQFAY

>  <Test readout>
Kd

>  <Modifier>
=

>  <Numeric readout>
4090

$$$$
>  <Sequence record>
YFVCWHTHNY

>  <Test readout>
Kd

>  <Modifier>
=

>  <Numeric readout>
1520

$$$$

---

System under test: HLA-A*68:02
Protocol: IEDB peptide-MHC binding, purified MHC/competitive/fluorescence; filed as Kd, often an IC50 or EC50 that approximates it; bounds were set here for any values at or beyond the usual limits of such assays
Test context: source organism: Cryptosporidium parvum Iowa II
pKd: −log10 of the molar value.

>  <Sequence record>
VYWENEVSI

>  <pKd>
≤ 4.70

$$$$

---

System under test: HLA-B*15:01
Protocol: IEDB peptide-MHC binding, purified MHC/direct/fluorescence; filed as Kd, often an IC50 or EC50 that approximates it; bounds were set here for any values at or beyond the usual limits of such assays
Test context: source organism: Histophilus somni
Test readout: Kd

>  <Sequence record>
QYPAFVLFI

>  <System under test>
HLA-B*15:01

>  <Result>
≥ 20 µM

$$$$

---

System under test: HLA-A*30:01
Protocol: IEDB peptide-MHC binding, purified MHC/competitive/radioactivity; filed as Kd, often an IC50 or EC50 that approximates it; bounds were set here for any values at or beyond the usual limits of such assays
Test context: source organism: Mammarenavirus juninense
pKd: −log10 of the molar value.

>  <Sequence record>
ELGNILSVY

>  <pKd>
4.96

$$$$

---

System under test: HLA-B*40:01
Protocol: IEDB peptide-MHC binding, purified MHC/competitive/radioactivity; filed as Kd, often an IC50 or EC50 that approximates it; bounds were set here for any values at or beyond the usual limits of such assays
Test context: source organism: Dengue virus 3 Singapore/8120/1995
pKd: −log10 of the molar value.

>  <Sequence record>
LEKASFIEV

>  <pKd>
5.98

$$$$

---

System under test: HLA-B*40:01
Protocol: IEDB peptide-MHC binding, purified MHC/competitive/radioactivity; filed as Kd, often an IC50 or EC50 that approximates it; bounds were set here for any values at or beyond the usual limits of such assays
Test context: source organism: Dengue virus 3 Martinique/1243/1999
pKd: −log10 of the molar value.
Test readout: pKd

>  <Sequence record>
LECSPRTGL

>  <Test readout>
pKd

>  <Numeric readout>
6.22

$$$$
>  <Sequence record>
KEISNMLSI

>  <Test readout>
pKd

>  <Numeric readout>
8.19

$$$$

---

System under test: HLA-A*69:01
Protocol: IEDB peptide-MHC binding, purified MHC/direct/fluorescence; filed as Kd, often an IC50 or EC50 that approximates it; bounds were set here for any values at or beyond the usual limits of such assays
Test context: source organism: SARS-CoV1

>  <Sequence record>
SLAIDAYPL

>  <System under test>
HLA-A*69:01

>  <Kd [nM]>
272

$$$$

---

System under test: HLA-A*31:01
Protocol: IEDB peptide-MHC binding, purified MHC/competitive/radioactivity; filed as Kd, often an IC50 or EC50 that approximates it; bounds were set here for any values at or beyond the usual limits of such assays
Test context: source organism: SARS coronavirus Tor2
Our labelling divides records by Kd into ranges: one (below 100 nM), two (100 nM to below 800 nM), three (800 nM or more)

>  <Sequence record>
MLLQFAYSNR

>  <System under test>
HLA-A*31:01

>  <Category label>
one

$$$$
>  <Sequence record>
RLYECLYRNR

>  <System under test>
HLA-A*31:01

>  <Category label>
one

$$$$
>  <Sequence record>
KTNCCRFQEK

>  <System under test>
HLA-A*31:01

>  <Category label>
one

$$$$
>  <Sequence record>
TQNVLYENQK

>  <System under test>
HLA-A*31:01

>  <Category label>
three

$$$$
>  <Sequence record>
TMHANYIFWR

>  <System under test>
HLA-A*31:01

>  <Category label>
one

$$$$
>  <Sequence record>
KVKYLYFIK

>  <System under test>
HLA-A*31:01

>  <Category label>
one

$$$$
>  <Sequence record>
NVYADSFVVK

>  <System under test>
HLA-A*31:01

>  <Category label>
two

$$$$
>  <Sequence record>
TVYVYSRVK

>  <System under test>
HLA-A*31:01

>  <Category label>
two

$$$$
>  <Sequence record>
AIVCRFDTR

>  <System under test>
HLA-A*31:01

>  <Category label>
two

$$$$
>  <Sequence record>
GMSYYCKSHK

>  <System under test>
HLA-A*31:01

>  <Category label>
two

$$$$
>  <Sequence record>
KMQRMLLEK

>  <System under test>
HLA-A*31:01

>  <Category label>
one

$$$$
>  <Sequence record>
ASLPYGANK

>  <System under test>
HLA-A*31:01

>  <Category label>
two

$$$$
>  <Sequence record>
IVNAANIHLK

>  <System under test>
HLA-A*31:01

>  <Category label>
three

$$$$
>  <Sequence record>
SMMGFKMNY

>  <System under test>
HLA-A*31:01

>  <Category label>
two

$$$$
>  <Sequence record>
QQQGQTVTK

>  <System under test>
HLA-A*31:01

>  <Category label>
three

$$$$
>  <Sequence record>
VLAYMLFTK

>  <System under test>
HLA-A*31:01

>  <Category label>
two

$$$$
>  <Sequence record>
ALSTNHGHK

>  <System under test>
HLA-A*31:01

>  <Category label>
three

$$$$
>  <Sequence record>
WIMLLQFAY

>  <System under test>
HLA-A*31:01

>  <Category label>
three

$$$$
>  <Sequence record>
YFVCWHTHNY

>  <System under test>
HLA-A*31:01

>  <Category label>
three

$$$$
